Where these numbers come from: ChEMBL document CHEMBL4330056

- assay.notes: Chemical stability of the compound assessed as compound remaining after 30 mins relative to control
- Type: physicochemical
- condition.context: read-out: Stability
readout.kind: remaining at 0.5 h (%)
Supply the numeric figure in %, leaving out any unit text.

Form field: reported remaining at 0.5 h of CSc1ncnc2c1c1c(ccn1C)n2[C@@H]1O[C@H](CO)[C@@H](O)[C@H]1O
99

Form field: reported remaining at 0.5 h of Cc1ncnc2c1c1c(ccn1C)n2[C@@H]1O[C@H](CO)[C@@H](O)[C@H]1O
97

Form field: reported remaining at 0.5 h of CSc1ncnc2c1c1occc1n2[C@@H]1O[C@H](CO)[C@@H](O)[C@H]1O
99

Form field: reported remaining at 0.5 h of Cc1ncnc2c1c1occc1n2[C@@H]1O[C@H](CO)[C@@H](O)[C@H]1O
99
